Reported inhibition zone (IZ) by item:
# Tested on: Priestia megaterium
# Assay name: Antimicrobial activity against Bacillus megaterium by agar diffusion test
# Format: functional

# Molecule, inhibition zone (IZ)
rows = [
    ("C[C@@H]1C[C@@H]([C@H](O)CC2CC(=O)NC(=O)C2)C(=O)[C@@H](C)C1 [CYCLOHEXIMIDE]", "0 mm"),
    ("COc1cc(=O)oc2c1CO[C@@H](CC(C)=O)C2 [PYRENOCINE K]", "8 mm"),
    ("CN(C)[C@@H]1C(O)=C(C(N)=O)C(=O)[C@@]2(O)C(O)=C3C(=O)c4c(O)cccc4[C@@](C)(O)[C@H]3C[C@@H]12 [TETRACYCLINE]", "18 mm"),
    ("CCCCCc1oc(=O)cc(OC)c1CO [PYRENOCINE M]", "9 mm"),
    ("CCC[C@@H](Cc1oc(=O)cc(OC)c1CO)OC(C)=O [PYRENOCINE L]", "9 mm"),
    ("CC1(C)S[C@@H]2[C@H](NC(=O)Cc3ccccc3)C(=O)N2[C@H]1C(=O)O [PENICILLIN G]", "18 mm"),
]
